These measurements were taken from ChEMBL document CHEMBL4393720.

Experiment: Cmax in female Sprague-Dawley rat at 10 mg/kg, po measured up to 24 hrs by LC/MS-MS analysis
Assay type: ADME, organism-based
Parameters: dose 10 mg/kg, route oral
Settings: in vivo
property: Cmax (nM)
Answer with a number only, understood to be in nM.

# molecule Fc1ccc(/C=N/Nc2nc(-c3ccc(C(F)(F)F)cc3)cs2)cc1F ; its Cmax = 960

====

Assay: Half life in female Sprague-Dawley rat at 10 mg/kg, po measured up to 24 hrs by LC/MS-MS analysis
Type: ADME, organism-based
Conditions: in vivo
property: half-life
Just the number plus its unit, please.

# compound Fc1ccc(/C=N/Nc2nc(-c3ccc(C(F)(F)F)cc3)cs2)cc1F ; its half-life = 1.12 h
